System: Human hepatoma carcinoma cells Bel7402
procedure_summary: Proliferation of human hepatoma carcinoma cells Bel7402 by MTT
Assay type: cell-based
measurement_setup: Bel7402 cells; 20 μg/ml; 24 h
measurement_name: 24 h inhibition ratio (%)

compound=Cc1nc(C)c(COC(=O)c2cc(O)c3c(c2)C(=O)c2cccc(O)c2C3=O)nc1C target="Human hepatoma carcinoma cells Bel7402" measurement_name="24 h inhibition ratio (%)" readout_value=67.23
compound="Cc1nc(C)c(COC(=O)C2=CC(O)C(O)C(O)C2)nc1C (stereo not shown)" target="Human hepatoma carcinoma cells Bel7402" measurement_name="24 h inhibition ratio (%)" readout_value=7.82
compound="Cc1nc(C)c(COC(=O)CCC(C)C2CCC3C4C(O)CC5CC(O)CCC5(C)C4CC(O)C23C)nc1C (stereo not shown)" target="Human hepatoma carcinoma cells Bel7402" measurement_name="24 h inhibition ratio (%)" readout_value=76.66
compound="Cc1nc(C)c(COC(=O)C23CCC(C)(C)CC2C2=CCC4C5(C)CCC(O)C(C)(C)C5CCC4(C)C2(C)CC3)nc1C (stereo not shown)" target="Human hepatoma carcinoma cells Bel7402" measurement_name="24 h inhibition ratio (%)" readout_value=89.07
compound="Cc1nc(C)c(COC(=O)C2(C)CCC3(C)CCC4(C)C(=CC(=O)C5C6(C)CCC(O)C(C)(C)C6CCC54C)C3C2)nc1C (stereo not shown)" target="Human hepatoma carcinoma cells Bel7402" measurement_name="24 h inhibition ratio (%)" readout_value=44.58
compound="Cc1nc(C)c(COC(=O)CCC(C)C2CCC3C4CCC5CC(O)CCC5(C)C4CC(O)C23C)nc1C (stereo not shown)" target="Human hepatoma carcinoma cells Bel7402" measurement_name="24 h inhibition ratio (%)" readout_value=61.2
compound=COc1cc(/C=C/C(=O)CC(=O)/C=C/c2ccc(OCc3nc(C)c(C)nc3C)c(OC)c2)ccc1OCc1nc(C)c(C)nc1C target="Human hepatoma carcinoma cells Bel7402" measurement_name="24 h inhibition ratio (%)" readout_value=44.58

----------
Test system: Human hepatoma carcinoma cells Bel7402
procedure_summary: Proliferation of human hepatoma carcinoma cells Bel7402 by MTT
Assay type: cell-based
measurement_setup: 40 μg/ml
measurement_name: 24 h inhibition ratio (%)

molecule="COc1cc(/C=C/C(=O)CC(=O)/C=C/c2ccc(OCc3nc(C)c(C)nc3C)c(OC)c2)ccc1OCc1nc(C)c(C)nc1C [LQC-Y8]" measurement_name="24 h inhibition ratio (%)" readout_value=54.07
molecule="Cc1nc(C)c(COC(=O)C23CCC(C)(C)CC2C2=CCC4C5(C)CCC(O)C(C)(C)C5CCC4(C)C2(C)CC3)nc1C (stereo not shown) [LQC-Y3]" measurement_name="24 h inhibition ratio (%)" readout_value=99.16
molecule="Cc1nc(C)c(COC(=O)c2cc(O)c3c(c2)C(=O)c2cccc(O)c2C3=O)nc1C [LQC-Y6]" measurement_name="24 h inhibition ratio (%)" readout_value=81.21
molecule="Cc1nc(C)c(COC(=O)C2(C)CCC3(C)CCC4(C)C(=CC(=O)C5C6(C)CCC(O)C(C)(C)C6CCC54C)C3C2)nc1C (stereo not shown) [LQC-Y4]" measurement_name="24 h inhibition ratio (%)" readout_value=94.42
molecule="Cc1nc(C)c(COC(=O)CCC(C)C2CCC3C4C(O)CC5CC(O)CCC5(C)C4CC(O)C23C)nc1C (stereo not shown) [LQC-Y1]" measurement_name="24 h inhibition ratio (%)" readout_value=86.44
molecule="Cc1nc(C)c(COC(=O)C2=CC(O)C(O)C(O)C2)nc1C (stereo not shown) [LQC-Y10]" measurement_name="24 h inhibition ratio (%)" readout_value=5.69
molecule="Cc1nc(C)c(COC(=O)CCC(C)C2CCC3C4CCC5CC(O)CCC5(C)C4CC(O)C23C)nc1C (stereo not shown) [LQC-Y2]" measurement_name="24 h inhibition ratio (%)" readout_value=66.98

----------
Tested on: Human hepatoma carcinoma cells Bel7402
procedure_summary: Proliferation of human hepatoma carcinoma cells Bel7402 by MTT
Type: cell-based
measurement_setup: cultured in vitro; 10-40 μg/ml
measurement_name: inhibiting effect on the proliferation of Bel7402 cells

compound="Cc1nc(C)c(COC(=O)C2=CC(O)C(O)C(O)C2)nc1C (stereo not shown) [LQC-Y10]" readout_value="inhibiting effect"
compound="Cc1nc(C)c(COC(=O)c2cc(O)c3c(c2)C(=O)c2cccc(O)c2C3=O)nc1C [LQC-Y6]" readout_value="inhibiting effect"
